- system name: SETD2 (1347-1711) (Homo sapiens, UniProt Q9BYW2)
- Construct: SETD2 (1347-1711)
- Sequence (Q9BYW2 1347-1711): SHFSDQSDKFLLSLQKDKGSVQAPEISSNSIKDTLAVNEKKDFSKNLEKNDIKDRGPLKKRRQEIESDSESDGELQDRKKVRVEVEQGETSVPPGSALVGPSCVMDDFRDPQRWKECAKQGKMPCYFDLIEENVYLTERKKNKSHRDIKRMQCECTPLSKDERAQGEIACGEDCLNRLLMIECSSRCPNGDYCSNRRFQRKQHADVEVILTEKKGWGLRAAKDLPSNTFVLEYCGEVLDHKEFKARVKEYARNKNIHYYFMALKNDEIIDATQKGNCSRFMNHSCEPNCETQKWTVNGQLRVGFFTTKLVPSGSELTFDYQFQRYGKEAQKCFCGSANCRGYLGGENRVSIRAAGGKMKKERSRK
- assay procedure: Filter-paper methylation assay, SETD2
- Assay type: biochemical
- study conditions: 250 nM enzyme, H3 (20-50 aa) peptide, 4 h
pIC50: −log10 of the molar value.
List of pIC50 values.

compound	system name	cmp	pIC50
Nc1ncnc2c1ncn2[C@@H]1O[C@H](CSCC[C@H](N)C(=O)O)[C@@H](O)[C@H]1O [SAH, S-adenosyl homocysteine, reference compound]	SETD2 (1347-1711) (Homo sapiens, UniProt Q9BYW2)	=	5.52
Nc1ncnc2c1ncn2[C@@H]1O[C@H](C[C@H](CC[C@H](N)C(=O)O)CNCc2ccccc2)[C@H](O)C1O (stereo partly shown) [Compound 202]	SETD2 (1347-1711) (Homo sapiens, UniProt Q9BYW2)	=	4.97
COC(=O)C(N)CCC(CC1OC(n2cnc3c(N)ncnc32)C(O)C1O)NCCNC(=N)N (stereo not shown) [Compound 109]	SETD2 (1347-1711) (Homo sapiens, UniProt Q9BYW2)	=	4.43
NC(=O)[C@@H](N)CC[C@@H](C[C@H]1O[C@@H](n2cnc3c(NC(=O)c4ccccc4)ncnc32)C(O)[C@H]1O)NCC(F)(F)F (stereo partly shown) [Compound 107]	SETD2 (1347-1711) (Homo sapiens, UniProt Q9BYW2)	<	4.00
Nc1ncnc2c1ncn2C1OC(CC(CCC(N)C(=O)O)NCCNCCCCC(N)C(=O)O)C(O)C1O (stereo not shown) [Compound 104]	SETD2 (1347-1711) (Homo sapiens, UniProt Q9BYW2)	=	4.95
NC(=O)[C@@H](N)CC[C@H](CNCC(F)(F)F)C[C@H]1O[C@@H](n2cnc3c(N)ncnc32)[C@H](O)[C@@H]1O [Compound 205]	SETD2 (1347-1711) (Homo sapiens, UniProt Q9BYW2)	=	4.17
NC(=O)C(N)CCC(CC1OC(n2cnc3c(N)ncnc32)C(O)C1O)NCc1ccccc1 (stereo not shown) [Compound 111]	SETD2 (1347-1711) (Homo sapiens, UniProt Q9BYW2)	=	4.33

----------
- system name: G9a (913-1913) (Homo sapiens)
- Sequence (Q96KQ7 913-1193): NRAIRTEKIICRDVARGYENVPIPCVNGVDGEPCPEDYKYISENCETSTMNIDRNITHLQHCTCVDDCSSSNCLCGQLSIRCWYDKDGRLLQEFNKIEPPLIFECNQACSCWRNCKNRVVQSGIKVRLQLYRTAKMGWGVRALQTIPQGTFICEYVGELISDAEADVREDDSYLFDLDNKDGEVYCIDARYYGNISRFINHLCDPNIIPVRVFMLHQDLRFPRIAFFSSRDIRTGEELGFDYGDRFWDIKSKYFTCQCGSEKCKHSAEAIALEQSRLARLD
pIC50: −log10 of the molar value.
List of pIC50 values.
reported endpoint: pIC50

                                   molecule  readout_value
0  NC(=O)C(N)CCC(CC1OC(n2cnc3c(N)ncnc32)C(O)C1O)NCc1ccccc1 (centres unmarked)         < 4.00
1  CCNC(CCC(N)C(=O)O)CC1OC(n2cnc3c(N)ncnc32)C(O)C1O (centres unmarked)         < 3.30
2  Nc1ncnc2c1ncn2C1OC(CC(CCC(N)C(=O)O)NCc2ccccc2)C(O)C1O (centres unmarked)         < 4.00
3  NC(=O)[C@@H](N)CC[C@H](CNCC(F)(F)F)C[C@H]1O[C@@H](n2cnc3c(N)ncnc32)[C@H](O)[C@@H]1O         < 4.00
4  NC(=O)[C@@H](N)CC[C@@H](C[C@H]1O[C@@H](n2cnc3c(NC(=O)c4ccccc4)ncnc32)C(O)[C@H]1O)NCC(F)(F)F (some centres unmarked)         < 4.00

----------
- system name: GLP1 (951-1235) (Homo sapiens, UniProt Q9H9B1)
- Sequence (Q9H9B1 982-1266 limits assumed): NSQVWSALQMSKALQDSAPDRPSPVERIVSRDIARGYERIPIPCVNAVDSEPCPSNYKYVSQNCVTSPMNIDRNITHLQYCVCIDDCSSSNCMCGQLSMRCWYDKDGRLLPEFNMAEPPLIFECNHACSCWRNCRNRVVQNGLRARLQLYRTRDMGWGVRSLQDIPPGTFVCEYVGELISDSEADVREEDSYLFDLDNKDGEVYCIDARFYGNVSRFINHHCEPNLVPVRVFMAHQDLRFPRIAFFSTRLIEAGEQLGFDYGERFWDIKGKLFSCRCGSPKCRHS
- assay procedure: biochemical
- study conditions: 10 nM enzyme, H3 (1-21 aa) peptide, 1 h
reported endpoint: IC50

>>> print(df.to_string())
                                   compound                               system_name  readout_value
0  Nc1ncnc2c1ncn2C1OC(CC(CCC(N)C(=O)O)NCCNCc2ccccc2)C(O)C1O (centres unmarked)  GLP1 (951-1235) (Homo sapiens, UniProt Q9H9B1)        37.4 µM
1  CCNC(CCC(N)C(=O)O)CC1OC(n2cnc3c(N)ncnc32)C(O)C1O (centres unmarked)  GLP1 (951-1235) (Homo sapiens, UniProt Q9H9B1)       > 500 µM
2  Nc1ncnc2c1ncn2C1OC(CC(N)CCCC(N)C(=O)O)C(O)C1O (centres unmarked)  GLP1 (951-1235) (Homo sapiens, UniProt Q9H9B1)        ~100 µM
3  COC(=O)C(N)CCC(CC1OC(n2cnc3c(N)ncnc32)C(O)C1O)NCCNC(=N)N (centres unmarked)  GLP1 (951-1235) (Homo sapiens, UniProt Q9H9B1)       > 100 µM
4  Nc1ncnc2c1ncn2[C@@H]1O[C@H](C[C@H](CC[C@H](N)C(=O)O)CNCc2ccccc2)[C@H](O)C1O (some centres unmarked)  GLP1 (951-1235) (Homo sapiens, UniProt Q9H9B1)       > 100 µM
5  NC(=O)[C@@H](N)CC[C@H](CNCC(F)(F)F)C[C@H]1O[C@@H](n2cnc3c(N)ncnc32)[C@H](O)[C@@H]1O  GLP1 (951-1235) (Homo sapiens, UniProt Q9H9B1)       > 100 µM
6  NC[C@@H](CC[C@H](N)C(=O)O)C[C@H]1O[C@@H](n2cnc3c(N)ncnc32)C(O)[C@H]1O (some centres unmarked)  GLP1 (951-1235) (Homo sapiens, UniProt Q9H9B1)       > 100 µM
7  Nc1ncnc2c1ncn2C1OC(CC(CCC(N)C(=O)O)NCc2ccccc2)C(O)C1O (centres unmarked)  GLP1 (951-1235) (Homo sapiens, UniProt Q9H9B1)       > 100 µM

----------
- system name: PRMT3 (211-531) (Homo sapiens)
- Sequence (O60678 211-531): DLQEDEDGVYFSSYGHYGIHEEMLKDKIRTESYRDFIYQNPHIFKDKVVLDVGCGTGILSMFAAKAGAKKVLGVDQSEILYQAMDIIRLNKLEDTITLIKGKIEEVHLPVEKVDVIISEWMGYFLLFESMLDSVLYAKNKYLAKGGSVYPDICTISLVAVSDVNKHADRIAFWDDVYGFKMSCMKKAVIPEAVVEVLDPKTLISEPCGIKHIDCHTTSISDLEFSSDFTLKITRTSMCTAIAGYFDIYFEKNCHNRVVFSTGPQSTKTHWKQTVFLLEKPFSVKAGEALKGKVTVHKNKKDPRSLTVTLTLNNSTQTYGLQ
pIC50: −log10 of the molar value.
Assign class by pIC50: not lower than 5 means satisfied; lower than 5 means not satisfied.

In [3]: df
Out[3]:
                                   compound                     system_name  classification
0  NCCNC(CCC(N)C(=O)O)CC1OC(n2cnc3c(N)ncnc32)C(O)C1O (stereo not shown)  PRMT3 (211-531) (Homo sapiens)       satisfied
1  Nc1ncnc2c1ncn2C1OC(CC(CCC(N)C(=O)O)NCc2ccccc2)C(O)C1O (stereo not shown)  PRMT3 (211-531) (Homo sapiens)       satisfied
2  NC(=O)[C@@H](N)CC[C@@H](C[C@H]1O[C@@H](n2cnc3c(NC(=O)c4ccccc4)ncnc32)C(O)[C@H]1O)NCC(F)(F)F (stereo partly shown)  PRMT3 (211-531) (Homo sapiens)   not satisfied
3  CNC(CCC(N)C(=O)O)CC1OC(n2cnc3c(N)ncnc32)C(O)C1O (stereo not shown)  PRMT3 (211-531) (Homo sapiens)   not satisfied

----------
- system name: CARM1 (19-608) (Homo sapiens)
- Construct: CARM1 (19-608)
- Sequence (Q86X55 19-608): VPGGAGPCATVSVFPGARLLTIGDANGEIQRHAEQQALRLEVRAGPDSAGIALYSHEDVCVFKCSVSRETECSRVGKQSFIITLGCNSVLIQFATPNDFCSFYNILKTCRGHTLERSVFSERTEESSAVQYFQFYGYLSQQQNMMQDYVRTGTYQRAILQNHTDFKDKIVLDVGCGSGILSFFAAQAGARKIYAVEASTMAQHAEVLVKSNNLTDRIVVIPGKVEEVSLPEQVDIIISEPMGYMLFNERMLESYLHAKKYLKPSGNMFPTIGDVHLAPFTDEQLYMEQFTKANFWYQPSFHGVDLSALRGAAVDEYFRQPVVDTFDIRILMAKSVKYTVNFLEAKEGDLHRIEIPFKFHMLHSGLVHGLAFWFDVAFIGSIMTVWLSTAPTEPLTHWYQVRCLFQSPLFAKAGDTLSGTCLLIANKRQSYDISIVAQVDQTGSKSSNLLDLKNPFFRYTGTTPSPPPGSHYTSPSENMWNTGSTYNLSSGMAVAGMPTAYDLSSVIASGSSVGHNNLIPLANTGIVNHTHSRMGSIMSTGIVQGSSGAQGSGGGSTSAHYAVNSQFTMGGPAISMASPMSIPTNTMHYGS
- assay procedure: Filter-paper methylation assay, CARM1
- Type: biochemical
pIC50: −log10 of the molar value.
reported endpoint: pIC50

In [3]: df
Out[3]:
                                   compound  readout_value
0  Nc1ncnc2c1ncn2[C@@H]1O[C@H](C[C@@H](N)CC[C@H](N)C(=O)O)[C@@H](O)[C@H]1O [SIN, sinefungin, reference compound]           6.30
1  Nc1ncnc2c1ncn2C1OC(CC(N)CCCC(N)C(=O)O)C(O)C1O (stereo not shown) [Compound 300]           5.36
2  CCNC(CCC(N)C(=O)O)CC1OC(n2cnc3c(N)ncnc32)C(O)C1O (stereo not shown) [Compound 100]           5.85
3  Nc1ncnc2c1ncn2C1OC(CC(CCC(N)C(=O)O)NCCNCCCCC(N)C(=O)O)C(O)C1O (stereo not shown) [Compound 104]           5.96
4  NC(=O)[C@@H](N)CC[C@H](CNCC(F)(F)F)C[C@H]1O[C@@H](n2cnc3c(N)ncnc32)[C@H](O)[C@@H]1O [Compound 205]           4.49
5  NC[C@@H](CC[C@H](N)C(=O)O)C[C@H]1O[C@@H](n2cnc3c(N)ncnc32)C(O)[C@H]1O (stereo partly shown) [Compound 201]           7.00

src = patent US9493501B2
